Each recorded value in this set is attributed to patent US20260274797A1.

- MEASUREMENT_PROTOCOL: Test of stability in liver microsomes (monkey)
- Format: in vitro ADME
- REPORTED_CONDITIONS: 1 μM test compound, NADPH, 37° C.
MEASURED_METRIC: half-life at 1 μM

>>> result("Cc1cc(-c2c(C)cc(F)cc2C)cc([C@H](CC(=O)O)NC(=O)[C@H](CC(C)C)n2cc(CCN(C)C)c(C(F)(F)F)cc2=O)c1F [Control compound A]")
"10.6 min"

----------
- MEASUREMENT_PROTOCOL: Test of stability in liver microsomes (mouse)
- Type: in vitro ADME
- REPORTED_CONDITIONS: 1 μM test compound, NADPH, 37° C., read-out: Hepatic microsomal intrinsic clearance CLint (mic)
MEASURED_METRIC: microsomal CLint at 1 μM

>>> result("Cc1cc(-c2c(C)cc(F)cc2C)cc([C@H](CC(=O)O)NC(=O)[C@H](CC(C)C)n2cc(CCN(C)C)c(C(F)(F)F)cc2=O)c1F [Control compound A]")
"28.1 µL/min/mg"

----------
- MEASUREMENT_PROTOCOL: Pharmacokinetic test in rats
- Assay type: in vivo, SD rats
- REPORTED_CONDITIONS: male, SD, rat, plasma, PO: 10 mg/kg (footnote, control compound A)
MEASURED_METRIC: AUC (ng·h/mL)

>>> result("Cc1cc(-c2c(C)cc(F)cc2C)cc([C@H](CC(=O)O)NC(=O)[C@H](CC(C)C)n2cc(CCN(C)C)c(C(F)(F)F)cc2=O)c1F [Control compound A]")
900

----------
- MEASUREMENT_PROTOCOL: Test of stability in liver microsomes (mouse)
- Type: in vitro ADME
- REPORTED_CONDITIONS: 1 μM test compound, NADPH, 37° C.
MEASURED_METRIC: half-life at 1 μM

>>> result("Cc1cc(-c2c(C)cc(F)cc2C)cc([C@H](CC(=O)O)NC(=O)[C@H](CC(C)C)n2cc(CCN(C)C)c(C(F)(F)F)cc2=O)c1F [Control compound A]")
"49.3 min"
